test system: SF-268 CNS; experiment: NCI tumour cell line growth inhibition, 48 h; in the data active means GI50 below about 0.43 µM; inactive means the rest
Write down the outcome that applies. Available outcomes: Y (active), N (inactive)

CCNCCCn1c2c(c3ccc([N+](=O)[O-])cc3c1=O)C(=O)c1cc(OC)cnc1-2 Y

For CCOC(=O)Nc1nc2c(C)cccc2s1 , what call appears in the results of this test? N

Continue with C=C1C(=O)O[C@H]2[C@H]1CC/C(COC(=O)c1ccccc1)=C\CC[C@@]1(C)O[C@@H]21 N

* * *

test system: A498 renal; assay: NCI tumour cell line growth inhibition, 48 h; in the data active means GI50 below about 0.43 µM; inactive means the rest
Entry note: the call must match one of true (1) (active), false (0) (inactive)

OCc1ccc(N(CCN2CCCC2)Cc2ccc(F)cc2)cc1Cl false (0)
CCOC(=O)Nc1nc2c(C)cccc2s1 false (0)
COc1ccc(-c2csc(NC(=O)c3cc(O)c(O)c(O)c3)n2)cc1 false (0)

Entry Cc1[nH]nc2c1N=C(c1ccccc1Cl)c1cc([N+](=O)[O-])ccc1N2 : call = ? true (1)

And then COc1cc(/C=C2\C(=O)Nc3cccc(Cl)c32)cc(OC)c1OC , what is it? false (0)

* * *

tested on: MDA-MB-435; test: NCI tumour cell line growth inhibition, 48 h
MEASUREMENT KIND: TGI (µM)
The response must be a number in µM with no trailing unit.

These solved cases illustrate the format of a correct answer.
MOLECULE	TGI / µM
O=[N+]([O-])c1ccc2nc3ccccc3cc2c1	3.76
CC1(C)CC(Nc2ccc(Nc3ccccc3)cc2)CC(C)(C)N1	33.6
O=C1CS/C(=N\S(=O)(=O)c2ccc(N3N=C4c5ccccc5CC4C3c3ccc(Cl)cc3)cc2)N1c1ccccc1 (stereo unspecified)	88.8
c1ccc(N=C2SC3=NCCN3C2=Nc2ccccc2)cc1	43
COc1ccc2c(c1)/C(=N/OC(C)=O)c1c-2c(=O)[nH]c2ccccc12	34.5

Value lookup for TGI; key = COc1ccc(N(/C=C/C(=O)C(F)(F)F)CC(=O)c2ccc(Cl)c(Cl)c2)cc1 25.4

Continue with C[C@]1(O)O[C@@H]2OCC[C@@H]2C2=C1C(=O)c1ccccc1C2=O 19.5

Next: N#Cc1ccc(Oc2nc3ccc(C(F)(F)F)cc3nc2-c2ccccc2)cc1 33.8

Now give it for O=C(COc1cccc(/C=C2\CSc3ccccc3C2=O)c1)c1ccc(Cl)cc1 too. 3.44

Now the molecule C=C1C(=O)O[C@H]2[C@H]1CC/C(COC(=O)c1ccccc1)=C\CC[C@@]1(C)O[C@@H]21 3.24

Also NC(=O)c1ccc2nc3c(n2c1)C(=O)C(=O)c1ccccc1-3 , if possible. 0.336

* * *

test system: IGROV1 ovarian; test: NCI tumour cell line growth inhibition, 48 h
# maps each entry to its GI50

// solved cases for GI50 follow
C[C@H](N)C(=O)N1C[C@H](CCCB(O)O)[C@](N)(C(=O)O)C1 > 100 µM
C=C1C(=O)O[C@H]2[C@H]1CC/C(Cn1cc(-c3cc(C)c(C)cc3C)nn1)=C\CC[C@@]1(C)O[C@@H]21 1.29 µM
N#Cc1c(N)nc(N2CCOCC2)c(C#N)c1-c1ccccc1Cl 14.7 µM

Continue with the molecule presented below.
# get_value(readout= GI50, system= IGROV1 ovarian) for CCSc1nnc(-c2ccc3ccccc3c2O)n1-c1ccc(Cl)cc1 4.42 µM

Where these numbers come from: PubChem BioAssay (NCI)
